# tgt: Aldehyde dehydrogenase 1A1 (Homo sapiens) (UniProt P00352)
# test protocol: qHTS for Inhibitors of the Aldehyde Dehydrogenase Family (ALDH1A1) Confirmatory screens (AID 2061316); also: nearly all actives have a fitted effect of over 65% in size
# test context: ALDH inhibition qHTS; series mostly up to 47.3 µM
Results filed as inconclusive are left out. Active and inactive are the calls of the source. Calls follow the shape of the dose curve; as a rule, active = well fitted inhibition curve with a large enough effect; inconclusive = small, poorly fitted or top-dose-only effect; inactive = no such curve, though single readings can be large or run the other way.
Pick one: yes (1) = active, no (0) = inactive

For orientation, consider the following solved cases.
>  <molecule>
FC(F)(F)c1ccccc1-c1nc(NCc2ccc(-c3ccccc3)cc2)c2ccccc2n1

>  <tgt>
Aldehyde dehydrogenase 1A1 (Homo sapiens) (UniProt P00352)

>  <class>
no (0)

$$$$
>  <molecule>
CCC(=O)Nc1ccc(OCc2cc(C3Nc4ccccc4C(=O)N3Cc3ccccc3)ccc2OC)cc1 (stereo not given)

>  <tgt>
Aldehyde dehydrogenase 1A1 (Homo sapiens) (UniProt P00352)

>  <class>
no (0)

$$$$
>  <molecule>
O=C(Nc1ncc(Cc2ccc(C(F)(F)F)cc2)s1)c1ccc(-c2ccccc2[N+](=O)[O-])o1

>  <tgt>
Aldehyde dehydrogenase 1A1 (Homo sapiens) (UniProt P00352)

>  <class>
yes (1)

$$$$
>  <molecule>
N#Cc1c(-c2cccc(Br)c2)no[n+]1[O-]

>  <tgt>
Aldehyde dehydrogenase 1A1 (Homo sapiens) (UniProt P00352)

>  <class>
yes (1)

$$$$

Below: the item to evaluate.
Ask: Hi team, can someone confirm the assay call for `Cc1ccc2nc3sc(C(=O)N4CCN(C5CCN(C)CC5)CC4)cc3cc2c1` ?
Reply: yes (1)
